Assign IC50 to each entry below.
Target of assay: human TLR8 (Homo sapiens)
Sequence (Q9NR97 27-1041): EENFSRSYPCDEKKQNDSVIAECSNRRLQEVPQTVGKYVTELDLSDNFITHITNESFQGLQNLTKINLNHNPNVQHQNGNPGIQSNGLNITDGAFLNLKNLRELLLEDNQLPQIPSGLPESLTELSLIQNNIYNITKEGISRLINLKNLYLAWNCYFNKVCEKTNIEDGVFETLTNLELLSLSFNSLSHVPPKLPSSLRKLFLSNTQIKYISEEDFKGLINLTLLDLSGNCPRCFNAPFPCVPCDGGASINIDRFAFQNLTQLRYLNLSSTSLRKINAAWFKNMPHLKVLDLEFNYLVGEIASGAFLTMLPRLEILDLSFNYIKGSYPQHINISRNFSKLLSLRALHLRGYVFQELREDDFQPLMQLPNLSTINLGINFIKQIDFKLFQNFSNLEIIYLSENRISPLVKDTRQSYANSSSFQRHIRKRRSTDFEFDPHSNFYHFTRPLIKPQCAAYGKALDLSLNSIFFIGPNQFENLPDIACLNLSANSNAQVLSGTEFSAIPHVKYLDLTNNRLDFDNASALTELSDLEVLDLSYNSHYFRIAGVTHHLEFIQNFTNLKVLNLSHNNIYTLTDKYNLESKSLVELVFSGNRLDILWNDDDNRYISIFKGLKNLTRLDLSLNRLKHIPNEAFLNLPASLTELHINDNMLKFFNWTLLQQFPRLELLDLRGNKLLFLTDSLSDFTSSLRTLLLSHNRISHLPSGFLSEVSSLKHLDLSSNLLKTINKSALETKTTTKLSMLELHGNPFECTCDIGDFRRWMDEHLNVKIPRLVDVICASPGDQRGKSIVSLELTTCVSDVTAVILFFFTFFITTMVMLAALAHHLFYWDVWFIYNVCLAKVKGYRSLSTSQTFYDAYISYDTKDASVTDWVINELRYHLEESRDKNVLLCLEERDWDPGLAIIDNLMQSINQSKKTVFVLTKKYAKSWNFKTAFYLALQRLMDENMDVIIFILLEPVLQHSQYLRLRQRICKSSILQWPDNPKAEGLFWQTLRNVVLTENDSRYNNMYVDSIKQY
Assay notes: TLR8 inhibition reporter assay (HEK-Blue SEAP reporter, R848 stimulation)
Measurement parameters: HEK-Blue cells overexpressing human TLR8, SEAP reporter, R848 15.9 μM, 22 hour incubation
Entry rule: numbers only, all in nM.

Ask: Look up IC50 with human TLR8 (Homo sapiens) for this molecule: CC(C)c1c(-c2cc(Cl)c(=O)n(C)c2)[nH]c2ccc(C3CCNCC3)cc12 [Example 22]
Result: 10.7

Ask: Look up IC50 with human TLR8 (Homo sapiens) for this molecule: Cc1c(-c2[nH]c3ccc(C4CCN(C5COC5)CC4)cc3c2C(C)C)cc(C#N)c(=O)n1C [Example 219]
Result: 9.1

Ask: Look up IC50 with human TLR8 (Homo sapiens) for this molecule: COCCOCCOCCN1CCC(c2ccc3[nH]c(-c4cn(C)c(=O)c(Cl)c4C)c(C(C)C)c3c2)CC1 [Example 98]
Result: 10.4
